Taken from patent US20230212549A1.

- target-of-assay: fibroblast activation protein (FAP) on FAP-expressing human WI-38 fibroblasts (human) (UniProt Q12884)
- assay-notes: competitive FACS, WI-38 cells, vs Cy5 tracer m3; D = pIC50 <=6.0
Numbered stars: 1 amine (or outer) side, 2 acyl side, 3 side chain; on linkers, the order of the positions; unused ones are H or OH. Bridge positions count the residues as written; N and C are the ends. Square brackets hold non-standard residues; d marks the D form. * marks the point of attachment. Met(O2) = CS(=O)(=O)CC[C@H](N)C(=O)O; mXylylene = c1cc(C[*:1])cc(C[*:2])c1; NMeE = CN[C@@H](CCC(=O)O)C(=O)O; Nphe = O=C(O)CNCc1ccccc1; Hexanoyl = CCCCCC(=O)*

binder	pIC50 Category (FACS)
Hexanoyl-CPPTE[Nphe]C-NH2 (linker 1-7 via mXylylene; SMILES CCCCCC(=O)N[C@H]1CSCc2cccc(c2)CSC[C@@H](C(N)=O)NC(=O)CN(Cc2ccccc2)C(=O)[C@H](CCC(=O)O)NC(=O)[C@H]([C@@H](C)O)NC(=O)[C@@H]2CCCN2C(=O)[C@@H]2CCCN2C1=O) [Hex-[Cys(3MeBn)-Pro-Pro-Thr-Glu-Nphe-Cys]-NH2]	< 6 pIC50
Hexanoyl-CPPT[NMeE]FC-NH2 (linker 1-7 via mXylylene; SMILES CCCCCC(=O)N[C@H]1CSCc2cccc(c2)CSC[C@@H](C(N)=O)NC(=O)[C@H](Cc2ccccc2)NC(=O)[C@H](CCC(=O)O)N(C)C(=O)[C@H]([C@@H](C)O)NC(=O)[C@@H]2CCCN2C(=O)[C@@H]2CCCN2C1=O) [Hex-[Cys(3MeBn)-Pro-Pro-Thr-Nme-Phe-Cys]-NH2]	< 6 pIC50
Hexanoyl-CPPT[Met(O2)]FC-NH2 (linker 1-7 via mXylylene; SMILES CCCCCC(=O)N[C@H]1CSCc2cccc(c2)CSC[C@@H](C(N)=O)NC(=O)[C@H](Cc2ccccc2)NC(=O)[C@H](CCS(C)(=O)=O)NC(=O)[C@H]([C@@H](C)O)NC(=O)[C@@H]2CCCN2C(=O)[C@@H]2CCCN2C1=O) [Hex-[Cys(3MeBn)-Pro-Pro-Thr-Moo-Phe-Cys]-NH2]	< 6 pIC50
